Hello, the source for this data is patent US20250188040A1, in case you need it.

# GI50 per record follows
Test system: HCT 116 cells
Assay: Cell growth assay (CellTiter-Glo 2.0), HCT 116 MSI-H cell line
Settings: Homo sapiens, HCT-116, 120 h, read-out: Cell Growth Inhibition GI50 HCT-116

[
  {
    "Smiles code": "CC(C)N(C)c1ncc(C(=O)N[C@H](/C=C/S(C)(=O)=O)C2CC2)c(Oc2ccccc2)n1",
    "GI50 (µM)": 0.0195
  },
  {
    "Smiles code": "C[C@@H](/C=C/S(C)(=O)=O)NC(=O)c1cnc(N2C3CCC2CC3)nc1Oc1ccccc1",
    "GI50 (µM)": 0.69
  },
  {
    "Smiles code": "C[C@@H](/C=C/S(C)(=O)=O)NC(=O)c1cnc(OC2CCCC2)nc1Oc1ccccc1",
    "GI50 (µM)": 2.7
  },
  {
    "Smiles code": "C[C@@H](/C=C/S(C)(=O)=O)NC(=O)c1cnc(C2CC(F)(F)C2)nc1Oc1ccccc1",
    "GI50 (µM)": 0.359
  }
]
